Overview of reported maximal absorbance value across a group of binders:
- study.target: tetanus neurotoxin (TeNT), authentic tetanus holotoxin (Clostridium tetani, UniProt P04958 2-1315)
- Sequence (P04958 2-457 limits assumed, chain 1 of 2): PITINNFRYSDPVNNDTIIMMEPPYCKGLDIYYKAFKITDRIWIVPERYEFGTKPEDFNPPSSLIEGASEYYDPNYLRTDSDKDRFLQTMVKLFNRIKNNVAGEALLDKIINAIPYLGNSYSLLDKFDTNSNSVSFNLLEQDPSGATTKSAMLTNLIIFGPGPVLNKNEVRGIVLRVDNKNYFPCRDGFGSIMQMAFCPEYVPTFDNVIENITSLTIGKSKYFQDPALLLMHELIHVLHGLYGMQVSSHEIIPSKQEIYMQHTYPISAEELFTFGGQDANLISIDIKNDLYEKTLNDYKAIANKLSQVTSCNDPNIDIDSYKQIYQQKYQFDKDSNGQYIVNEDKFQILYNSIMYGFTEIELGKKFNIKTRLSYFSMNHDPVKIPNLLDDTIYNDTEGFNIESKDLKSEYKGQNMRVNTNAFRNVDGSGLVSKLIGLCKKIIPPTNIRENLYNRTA
- Sequence (P04958 458-1315 limits assumed, chain 2 of 2): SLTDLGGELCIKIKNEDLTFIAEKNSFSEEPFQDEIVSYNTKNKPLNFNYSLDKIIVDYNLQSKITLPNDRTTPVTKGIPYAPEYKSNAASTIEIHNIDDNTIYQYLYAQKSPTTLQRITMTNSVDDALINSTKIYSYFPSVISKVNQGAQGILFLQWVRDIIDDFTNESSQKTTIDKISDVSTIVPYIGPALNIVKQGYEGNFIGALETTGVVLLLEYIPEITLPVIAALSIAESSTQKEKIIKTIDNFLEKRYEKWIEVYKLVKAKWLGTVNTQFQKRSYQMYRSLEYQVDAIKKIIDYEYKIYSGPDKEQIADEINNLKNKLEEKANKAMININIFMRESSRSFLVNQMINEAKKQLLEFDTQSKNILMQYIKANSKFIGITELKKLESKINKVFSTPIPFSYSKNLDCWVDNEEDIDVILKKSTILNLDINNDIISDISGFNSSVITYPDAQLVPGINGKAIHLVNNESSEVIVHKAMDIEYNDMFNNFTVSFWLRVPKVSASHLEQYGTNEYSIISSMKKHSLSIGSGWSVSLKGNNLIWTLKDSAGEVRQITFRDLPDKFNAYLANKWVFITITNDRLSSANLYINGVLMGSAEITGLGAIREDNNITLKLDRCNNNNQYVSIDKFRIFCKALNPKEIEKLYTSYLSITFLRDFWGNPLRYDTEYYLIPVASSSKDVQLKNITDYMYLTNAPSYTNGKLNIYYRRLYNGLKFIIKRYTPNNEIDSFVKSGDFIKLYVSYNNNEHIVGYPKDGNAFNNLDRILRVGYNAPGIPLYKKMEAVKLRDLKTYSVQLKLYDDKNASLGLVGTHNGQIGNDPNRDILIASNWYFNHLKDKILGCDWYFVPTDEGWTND
- assay.comment: bridging ELISA: coated dog IgG, SDA, biotinylated TeNT, StrepPO
quantity: maximal absorbance value (A450)

binder	quantity	result.units	value
SVT02-GS2-SVG13M4-H6 (bispecific antibody) QVQLQQSGGGSVQAGGSLRLSCVGPQRTFSTYGMGWFRQAPGKEREFVAGINYKGDTTYYADSVKGRFTISRDNAKNTLYLQMDSLKPEDRAVYQCARKGGLGGDYRDAGQYRYWGQGTQVTVSSGGGGSGGGSEVQLVESGGGLVQPGGSLRLSCEASGFTFDDYGMSWVRQAPGKGLEWVSSLTPNGGSTYYADSVKGRFTISRDNAKNTLYLQMNSLKPEDTALYYCAKNSYYGAMDYWGQGTQVTVSSHHHHHH	maximal absorbance value	A450	1.32
SVT15-3FW4M-GS2-SVG06M4-H6 (bispecific antibody) QVQLQESGGGLVQTGGSLRLSCRASGRAFANYHFGWFRQAPGKDREFVASISWKGGSTYYANFALGRFTSSVDRAESSVYLQMSGLTPEDTATYYCAAHDGGDWNYHTGMDYWGQGTQVTVSSGGGGSGGGSEVQLVESGGALVQPGGSLRLSCAASGFPFSAYDMTWVRQAPGQGLEWVSTIHKSGGITTYADSVKGRFTISRDNAKNTLYLQMNNLESEDTAVYYCAKALRAHNSDYVGRNALGSWGQGTQVTVSSHHHHHH	maximal absorbance value	A450	1.3
SVT15-3FW4M-GS2-SVG13M4-H6 (bispecific antibody) QVQLQESGGGLVQTGGSLRLSCRASGRAFANYHFGWFRQAPGKDREFVASISWKGGSTYYANFALGRFTSSVDRAESSVYLQMSGLTPEDTATYYCAAHDGGDWNYHTGMDYWGQGTQVTVSSGGGGSGGGSEVQLVESGGGLVQPGGSLRLSCEASGFTFDDYGMSWVRQAPGKGLEWVSSLTPNGGSTYYADSVKGRFTISRDNAKNTLYLQMNSLKPEDTALYYCAKNSYYGAMDYWGQGTQVTVSSHHHHHH	maximal absorbance value	A450	1.47
SVT06-GS2-SVG13M4-H6 (bispecific antibody) QVQLQESGGGSVQAGGSLRLSCTASELSYDDYTIAWFRRAAGEGRVEDGEGVASITKSYDRAYDNKINYGHSVKGRFTISRDNAKNTVYLQMTDLLPSDTAVYYCALDITPPGGVGASLTEGFLFDYWGQGTQVTVSSGGGGSGGGSEVQLVESGGGLVQPGGSLRLSCEASGFTFDDYGMSWVRQAPGKGLEWVSSLTPNGGSTYYADSVKGRFTISRDNAKNTLYLQMNSLKPEDTALYYCAKNSYYGAMDYWGQGTQVTVSSHHHHHH	maximal absorbance value	A450	1.61
